tested on: SK-MEL-28 melanoma; assay: NCI tumour cell line growth inhibition, 48 h
# TGI listing for each entry below
Write the number in µM without appending the unit.

Here are 2 molecules together with their reported answers.
INSERT INTO results (test_smiles, units_label, val) VALUES
  ('O=C1c2ccccc2-c2c1c1ccccc1c(=O)n2CCCNCCO', 'µM', 2.95),
  ('N#CCCCCCn1c2ccccc2c2c3c(c4c5ccccc5[nH]c4c21)C(=O)N(O)C3=O', 'µM', 6.61);

Would you mind telling me what TGI value was observed for "Cc1ccc(/C=C2\CN(C(=O)CCN3CCC(=NO)CC3)C/C(=C\c3ccc(C)cc3)C2=O)cc1" ?
4.63

All values here come from PubChem BioAssay (NCI).
